- target.system: Peroxisome proliferator-activated receptor gamma (Homo sapiens, UniProt P37231)
- Sequence (P37231 whole entry, the tested form may be a part): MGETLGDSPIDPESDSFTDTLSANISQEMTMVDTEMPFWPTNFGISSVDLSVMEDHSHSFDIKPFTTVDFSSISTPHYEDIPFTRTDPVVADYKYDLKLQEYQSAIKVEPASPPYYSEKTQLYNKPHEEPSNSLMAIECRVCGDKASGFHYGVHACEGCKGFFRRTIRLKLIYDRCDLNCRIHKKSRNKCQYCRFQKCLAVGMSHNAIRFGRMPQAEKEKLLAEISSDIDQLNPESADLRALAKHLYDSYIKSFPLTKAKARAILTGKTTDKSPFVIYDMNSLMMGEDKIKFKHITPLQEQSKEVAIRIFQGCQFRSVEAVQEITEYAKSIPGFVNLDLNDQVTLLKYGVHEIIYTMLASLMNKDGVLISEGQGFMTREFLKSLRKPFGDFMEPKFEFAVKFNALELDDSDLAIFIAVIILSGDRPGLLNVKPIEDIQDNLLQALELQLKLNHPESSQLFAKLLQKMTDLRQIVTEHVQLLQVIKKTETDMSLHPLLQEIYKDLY
- protocol: Agonist activity at GAL4 tagged human PPARgamma ligand binding domain expressed in HEK293 cells by luciferase reporter gene assay
pEC50: −log10 of the molar value.
reported.metric: pEC50

{"molecule": "Cc1oc(-c2ccccc2)nc1CCOc1cccc(CC[C@@H]2CN(C(=O)Oc3ccccc3)C[C@@H]2C(=O)O)c1 (racemic)", "target.system": "Peroxisome proliferator-activated receptor gamma (Homo sapiens, UniProt P37231)", "pEC50": 6.20}

(A) Cc1oc(-c2ccccc2)nc1CCOc1cccc(CC[C@H]2CN(C(=O)Oc3ccccc3)C[C@@H]2C(=O)O)c1 (racemic)
(B) CCOC(=O)N1C[C@@H](Cc2ccc(OCCc3nc(-c4ccccc4)oc3C)cc2)[C@@H](C(=O)O)C1 (racemic)
Ask: When A and B are compared, which has the higher number for pEC50? The response must carry the label of the picked entry.
Reply: B

(A) Cc1oc(-c2ccccc2)nc1CCOc1cccc(C[C@H]2CN(C(=O)Oc3ccccc3)C[C@H]2C(=O)O)c1
(B) CCOC(=O)N1C[C@@H](CCc2ccc(OCCc3nc(-c4ccccc4)oc3C)cc2)[C@@H](C(=O)O)C1 (racemic)
Ask: When A and B are compared, which has the higher number for pEC50? The response must carry the label of the picked entry.
Reply: B

* * *

- target.system: Peroxisome proliferator-activated receptor gamma (Homo sapiens, UniProt P37231)
- protocol: Agonist activity at GAL4 tagged human PPARgamma ligand binding domain expressed in HEK293 cells by luciferase reporter gene assay
reported.metric: EC50

Completed entries (count: 5):
{"molecule": "Cc1oc(-c2ccccc2)nc1CCOc1ccc(C[C@@H]2CN(c3nc(C(F)(F)F)co3)C[C@@H]2C(=O)O)cc1 (racemic)", "meas.value": "> 30 µM"}
{"molecule": "CCOC(=O)N1C[C@H](C(=O)O)[C@@H](c2ccc(OCCc3nc(-c4ccccc4)oc3C)cc2)C1 (racemic)", "meas.value": "> 32 µM"}
{"molecule": "CCOC(=O)N1C[C@H](Cc2cccc(OCCc3nc(-c4ccccc4)oc3C)c2)[C@H](C(=O)O)C1", "meas.value": "> 10 µM"}
{"molecule": "Cc1oc(-c2ccccc2)nc1CCOc1ccc(C[C@H]2CN(c3nccc(C(F)(F)F)n3)C[C@H]2C(=O)O)cc1", "meas.value": "> 10 µM"}
{"molecule": "Cc1oc(-c2ccccc2)nc1CCOc1ccc(C[C@@H]2CN(c3nccc(C(F)(F)F)n3)C[C@@H]2C(=O)O)cc1", "meas.value": "0.03 µM"}

Ask: Supply reported EC50 belonging to this molecule: `Cc1oc(-c2ccccc2)nc1CCOc1ccc(C[C@H]2CN(c3nccc(C(F)(F)F)n3)C[C@@H]2C(=O)O)cc1`
Reply: > 30 µM

Ask: Supply reported EC50 belonging to this molecule: `Cc1oc(-c2ccccc2)nc1CCOc1cccc(C[C@H]2CN(c3ccccc3)C[C@H]2C(=O)O)c1`
Reply: > 10 µM
